Biological target: Isocitrate dehydrogenase [NADP] cytoplasmic (Homo sapiens)
Assay: PubChem AID 624101;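 also: 0% = DMSO and 100% = no enzyme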
Conditions: IDH1 R132H reductase, diaphorase/resazurin fluorescence, 60 min; at 10 µM; active compounds read high
Screen size: about 70,000 compounds; about 120 (0.17%) were called active. What follows is part of a selection rich in actives, with near analogues and random picks from the rest.
READOUT_LABEL: inhibition (%)
// return numeric value only (unit: %, not printed)

Per the records, this compound ( CO[C@H]1CN(C)C(=O)c2ccc(NC(=O)c3cc(C)on3)cc2OC[C@H](C)N(C)C[C@H]1C ) has inhibition equal to 0.444

// sample CO[C@H]1CN(C)C(=O)c2cc(NS(C)(=O)=O)ccc2OC[C@H](C)N(C(=O)C2CCCC2)C[C@H]1C , its inhibition was 0.272

Kindly note the recorded inhibition for COCc1cn(CC[C@H]2CC[C@H](NC(=O)c3ccncc3)[C@H](CO)O2)nn1 , which is 0.111

So, CN(C)C(=O)C[C@@H]1C[C@@H]2c3cc(NC(=O)c4ccc5c(c4)OCO5)ccc3O[C@@H]2[C@H](CO)O1 ? Its inhibition was -0.927

Recorded inhibition (compound CCC(=O)N(C)C[C@@H]1Oc2ncc(-c3ccccc3OC)cc2C(=O)N([C@@H](C)CO)C[C@@H]1C ): -0.321

The compound listed as COc1cccc(C(=O)Nc2ccc3c(c2)OC[C@H](C)NC[C@H](C)[C@H](OC)CN(C)C3=O)c1 shows inhibition equal to -0.351

Data point: O=C(C[C@H]1CC[C@@H](NC(=O)Nc2ccc(F)cc2)[C@@H](CO)O1)NCCN1CCCC1 ; inhibition = -0.0445

The reported value for O=C(N[C@@H]1CC[C@H](CCn2cc(C3CC3)nn2)O[C@H]1CO)c1cccnc1 in terms of inhibition is 0.0945

====

Target: Isocitrate dehydrogenase [NADP] cytoplasmic (Homo sapiens)
Assay: PubChem AID 624101;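 also: 0% = DMSO and 100% = no enzyme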
Conditions: IDH1 R132H reductase, diaphorase/resazurin fluorescence, 60 min; at 10 µM; active compounds read high
The whole screen tested about 70,000 compounds, of which about 120 (0.17%) were called active. This is one part of a sample in which actives are shown more often than they occur.
READOUT_LABEL: inhibition

Short answer for C[C@H]1CN([C@@H](C)CO)C(=O)c2cc(-c3ccccc3F)cnc2O[C@H]1CN(C)C(=O)C1CCOCC1 : inhibition was 0.288% (inactive)

Form field inhibition, entry C[C@@H]1CN([C@H](C)CO)S(=O)(=O)c2ccc(C#CCC3CCCC3)cc2O[C@H]1CN(C)Cc1ccc(C(=O)O)cc1 : 45.9% (active)

Form field inhibition, entry CO[C@@H]1CN(C)C(=O)c2cc(NS(C)(=O)=O)ccc2OC[C@@H](C)N(C(=O)C2CCC2)C[C@@H]1C : -0.303% (inactive)

Short answer for CO[C@@H](CN(C)C(=O)c1cnccn1)[C@@H](C)CN([C@@H](C)CO)S(=O)(=O)c1ccc(Cl)cc1 : inhibition was 0.106% (inactive)

Note to self: inhibition recorded for CCCNC(=O)C[C@H]1C[C@@H]2c3cc(NC(=O)C4CCOCC4)ccc3O[C@@H]2[C@H](CO)O1 was 0.074% (inactive)

Field inhibition (entry C[C@@H]1CN([C@@H](C)CO)S(=O)(=O)c2ccc(C#CCC3CCCC3)cc2O[C@@H]1CN(C)C ) reads -1.79% (inactive)

Measured inhibition of CO[C@H]1CC[C@@H]2CCOc3c(C#N)cccc3C(=O)N(C)CCCC(=O)N(C)C[C@@H]1O2 : -0.199% (inactive)

// inhibition lookup, compound = C[C@@H]1CN([C@@H](C)CO)S(=O)(=O)c2ccc(C#CCC3CCCC3)cc2O[C@H]1CN(C)Cc1ccc(C(=O)O)cc1 , result: 0.74% (inactive)

compound CCCN(C)C[C@@H]1Oc2cc(C#CCc3ccccc3)ccc2S(=O)(=O)N([C@H](C)CO)C[C@@H]1C , inhibition observed: 35.5% (active)

C/C=C/c1ccc2c(c1)O[C@H](CN(C)C(=O)Cc1ccncc1)[C@@H](C)CN([C@@H](C)CO)S2(=O)=O yielded inhibition of 37.6% (active)

inhibition recorded for this compound, CCCC#Cc1ccc2c(c1)O[C@@H](CN(C)CCC)[C@@H](C)CN([C@H](C)CO)S2(=O)=O , is -0.176% (inactive)

get_value(item= C[C@@H]1CN([C@H](C)CO)C(=O)c2cc(-c3ccc(C(=O)N(C)C)cc3)cnc2O[C@H]1CN(C)C(=O)C1CC1 , readout=inhibition) returns -0.906% (inactive)

Recorded result, C/C=C/c1ccc2c(c1)O[C@@H](CN(C)C(=O)Cc1ccccc1)[C@H](C)CN([C@@H](C)CO)S2(=O)=O , inhibition: 0.0005% (inactive)

Entry CO[C@H]1CN(C)C(=O)c2ccc(NS(=O)(=O)c3cn(C)cn3)cc2OC[C@H](C)N(C)C[C@H]1C , inhibition reported as -0.0025% (inactive)

// inhibition lookup, compound = CO[C@H]1CN(C)C(=O)c2cc(NS(=O)(=O)c3ccccc3)ccc2OC[C@H](C)N(C(=O)NC(C)C)C[C@@H]1C , result: 0.066% (inactive)

The compound listed as O=C(C[C@@H]1CC[C@H](NS(=O)(=O)c2cccc(F)c2)[C@H](CO)O1)N1CCCCC1 has a reported inhibition of 0.0905% (inactive)

====

Biological target: Isocitrate dehydrogenase [NADP] cytoplasmic (Homo sapiens)
Experiment: PubChem AID 624101;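 also: 0% = DMSO and 100% = no enzyme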
Conditions: IDH1 R132H reductase, diaphorase/resazurin fluorescence, 60 min; at 10 µM; active compounds read high
The whole screen tested about 70,000 compounds, of which about 120 (0.17%) were called active. This excerpt belongs to a sample that is enriched for actives.
Would you kindly list inhibition for each of these compounds?
Give the number; % is assumed, so skip it.

Form: compound = COc1cccc(S(=O)(=O)Nc2ccc3c(c2)C(=O)N(C)C[C@@H](OC)[C@H](C)CN(C(=O)Cc2cccnc2)[C@H](C)CO3)c1 ; inhibition = 0.018

According to the records, this compound O=C(Nc1ccccc1F)N[C@@H]1CC[C@H](CC(=O)N2CCCCC2)O[C@H]1CO displays inhibition of 0.211

Form field inhibition, entry CO[C@H]1CN(C)C(=O)c2ccc(NC(=O)C3CCC3)cc2OC[C@@H](C)N(Cc2ccccn2)C[C@H]1C : 0.331

// sample CC(C)CC#Cc1ccc2c(c1)O[C@@H](CN(C)C(=O)c1ccccn1)[C@@H](C)CN([C@H](C)CO)S2(=O)=O , its inhibition was -2.87

Lab book: inhibition of O=C(NCCCn1ccnc1)c1cnn2c(C(F)(F)F)cc(-c3ccccc3)nc12 noted as 42.5

Just so you know, measured inhibition for C[C@H](O)C#Cc1ccc2c(c1)O[C@H](CN(C)Cc1ccccn1)[C@H](C)CN([C@H](C)CO)S2(=O)=O came out at 1.79

Input CCCC(=O)Nc1ccc2c(c1)C(=O)N(C)C[C@H](OC)[C@@H](C)CN(C(C)=O)[C@H](C)CO2 . Output inhibition: 0.373

Sure, the documented inhibition for CO[C@H]1CN(C)C(=O)c2cc(NS(=O)(=O)CC(F)(F)F)ccc2OC[C@@H](C)N(Cc2nccs2)C[C@@H]1C is 0.457

O=C(Nc1ccc2c(c1)OCO2)N[C@@H]1CC[C@H](CC(=O)N2CCN(c3ccccc3)CC2)O[C@@H]1CO yielded inhibition of -0.0065

Entry under test: CO[C@@H]1CN(C)C(=O)c2ccc(NS(=O)(=O)c3cccc(Cl)c3)cc2OC[C@H](C)NC[C@H]1C . Its inhibition was -0.827

Measured inhibition of O=C(N[C@H]1C=C[C@@H](CC(=O)N2CCCCC2)O[C@@H]1CO)c1ccc2c(c1)OCO2 : -0.0205

The compound listed as CCC(=O)Nc1ccc2c(c1)C(=O)N(C)C[C@@H](OC)[C@H](C)CN(Cc1ccccc1C(=O)O)[C@@H](C)CO2 has a reported inhibition of -0.502

The reported value for CO[C@H]1CN(C)C(=O)c2ccc(NC(=O)NC(C)C)cc2OC[C@H](C)N(Cc2cncnc2)C[C@@H]1C in terms of inhibition is 0.214

Documented inhibition of CCCN(C)C[C@H]1Oc2cc(C#CCC(C)C)ccc2S(=O)(=O)N([C@H](C)CO)C[C@H]1C : -4.36

Given item COCC(=O)Nc1ccc2c(c1)C(=O)N(C)C[C@@H](OC)[C@@H](C)CN(C(=O)c1ccccc1)[C@@H](C)CO2 , the value recorded as its inhibition is 0.0325

Lab book: inhibition of Cc1ccc(-c2cc(C(F)(F)F)n3nc(C(=O)NCCN4CCOCC4)c(Cl)c3n2)cc1 noted as -0.63

====

So I've got a bunch of compounds here, and I need their inhibition values.
Molecular target: Isocitrate dehydrogenase [NADP] cytoplasmic (Homo sapiens)
Assay: PubChem AID 624101;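 also: 0% = DMSO and 100% = no enzyme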
Conditions: IDH1 R132H reductase, diaphorase/resazurin fluorescence, 60 min; at 10 µM; active compounds read high
The campaign covered roughly 70,000 compounds. About 120 (0.17%) were called active. Shown is part of a subset that was picked to be rich in actives.
Please state the figure in %; there is no need to write the unit.

Briefly, inhibition measured for Cc1ccc(S(=O)(=O)N[C@H]2CC[C@H](CC(=O)O)O[C@H]2CO)cc1 : -0.244

// inhibition lookup, compound = CO[C@@H]1CN(C)C(=O)c2cc(NC(=O)Nc3cc(F)ccc3F)ccc2OC[C@H](C)N(C)C[C@@H]1C , result: -0.288

// inhibition value for CCC(=O)Nc1ccc2c(c1)OC[C@@H](C)N(CC1CC1)C[C@H](C)[C@H](OC)CN(C)C2=O : 0.102

Short answer for CCCc1cn(CC[C@@H]2CC[C@@H](NS(=O)(=O)c3ccccc3Cl)[C@@H](CO)O2)nn1 : inhibition was -0.18

Notebook: CCS(=O)(=O)N[C@@H]1CC[C@@H](CC(=O)NCC2CC2)O[C@H]1CO , inhibition read as -0.0912

Entry CO[C@@H]1CN(C)C(=O)c2ccc(NC(=O)C3CC3)cc2OC[C@H](C)N(C(=O)c2ccccc2)C[C@@H]1C ; inhibition = 0.146

Field inhibition (entry CO[C@H]1CN(C)C(=O)c2cc(NS(=O)(=O)c3ccc(C)cc3)ccc2OC[C@H](C)NC[C@H]1C ) reads 0.218

So for C[C@@H]1CN([C@@H](C)CO)C(=O)Cc2cc(NC(=O)CCCCCC(=O)Nc3ccccc3N)ccc2O[C@H]1CN(C)C(=O)Nc1ccc(C(F)(F)F)cc1 , the logged inhibition turned out to be 0.304

Consider CO[C@@H]1CN(C)C(=O)c2ccc(NC(=O)C3CCCC3)cc2OC[C@H](C)NC[C@@H]1C . Its measured inhibition is -0.326

Record summary for CC(=O)N[C@H]1CC[C@H](CCNC(=O)C2CC2)O[C@H]1CO : reported inhibition = 0.591

The value of inhibition measured for the compound CCC(=O)Nc1ccc2c(c1)C(=O)N(C)C[C@H](OC)[C@H](C)CN(C(=O)c1ccccc1F)[C@@H](C)CO2 turned out to be -0.083

Memo: O=C(C[C@@H]1C[C@@H]2c3cc(NS(=O)(=O)c4ccc(F)cc4)ccc3O[C@@H]2[C@H](CO)O1)N1CCCCC1 , reported inhibition: 0.296

// field: inhibition; key: O=C(Cc1ccncc1)NCC[C@H]1CC[C@H](NC(=O)C2CC2)[C@H](CO)O1 ; value = 0.014

Notebook: CN(C)CCCNC(=O)C[C@@H]1C=C[C@H](NC(=O)c2ccccc2F)[C@H](CO)O1 , inhibition read as 0.626

Value of inhibition reported for the compound C[C@@H]1CN([C@H](C)CO)S(=O)(=O)c2ccc(-c3ccc(C(=O)N(C)C)cc3)cc2O[C@@H]1CN(C)C(=O)Nc1ccccc1F is 0.371

compound O=C(O)C[C@@H]1C[C@@H]2c3cc(NC(=O)NC4CCCC4)ccc3O[C@@H]2[C@H](CO)O1 , inhibition observed: -0.0525

Data point: CO[C@@H]1CN(C)C(=O)c2cc(NC(C)=O)ccc2OC[C@H](C)N(Cc2ccccc2F)C[C@@H]1C ; inhibition = -0.198
